experiment: Cytotoxicity against MDBK cells after 48 to 96 hrs by MTT assay; type: cell-based, Bos taurus; conditions: cattle, mdbk
Rule: CC50 below 40 µM gives met, anything at or above gives not met.

CN(/N=N/c1ccccc1)c1ccccc1 | not met

INPUT: is_below(CC50, 40 µM) for Cc1ccc(/N=N/c2ccc(NCCCN(C)C)cc2)cc1 ?
OUTPUT: not met

====

system: MT4; assay: Cytotoxicity against human MT4 cells after 96 hrs by MTT assay; assay type: cell-based; settings: mt4, 96 h
attribute.measured: CC50 (µM)
One number for each entry, in µM.

CN(C)CCCNc1ccc(/N=N/c2cc(F)ccc2F)cc1 | 16

Give CC50 for each of the items listed below.
1. Cc1c(/N=N/c2ccccc2)ccc(NC[C@@H]2CCCN3CCCC[C@H]23)c1C
2. Clc1ccc(/N=N/N2CCCC2)cc1Cl

OUTPUT:
31
75

Give CC50 for each of the items listed below.
1. CN(C)CCCN(/N=N/c1cccc([N+](=O)[O-])c1)c1ccccc1
2. O=[N+]([O-])c1cccc(/N=N/N2CCCC2)c1
3. O=c1cccc2n1CC1CC2CN(/N=N/c2ccc(Cl)cc2)C1 (stereo not drawn)
4. Cc1ccc(/N=N/N(CCCN(C)C)c2ccccc2)cc1
5. c1ccc(CN/N=N/c2ccccc2)cc1
6. CN(C)CCCN(/N=N/c1cc(F)ccc1F)c1ccccc1

OUTPUT:
1. 14
2. 66
3. 46
4. 18
5. 42
6. 13

====

assay: Cytotoxicity against hamster BHK21 cells assessed as reduction in cell viability after 48 to 96 hrs by MTT assay; type: cell-based, Mesocricetus auratus, BHK-21; settings: bhk-21
attribute.measured: CC50

Some molecules with known CC50 results, for comparison:
O=[N+]([O-])c1ccc(/N=N/N2CCCC2)cc1 | ≥ 100 µM
Clc1ccc(/N=N/N2CCCCC2)cc1 | > 100 µM
Brc1ccc(/N=N/N2CCCC2)cc1 | > 100 µM
CN(C)CCCN(/N=N/c1cccc([N+](=O)[O-])c1)c1ccccc1 | 54 µM
O=[N+]([O-])c1cccc(/N=N/N2CCCC2)c1 | 42 µM
COc1c(C)c2c(c(O)c1C/C=C(\C)CCC(=O)O)C(=O)OC2 | > 100 µM
CN1CCN(/N=N/c2cc(F)ccc2F)CC1 | > 100 µM
FC(F)(F)c1cccc(N(C[C@@H]2CCCN3CCCC[C@H]23)/N=N/c2ccccc2)c1 | 40 µM
Brc1cccc(/N=N/N2CCCCC2)c1 | > 100 µM
Cc1ccc(/N=N/c2ccc(NCCCN(C)C)cc2)cc1 | > 100 µM

Give CC50 for each of the items listed below.
1. CN(C)CCCN(/N=N/c1ccccc1)c1ccccc1
2. c1ccc(N=NNc2ccccc2)cc1

OUTPUT:
50 µM
> 100 µM

====

assay: Cytotoxicity against hamster BHK21 cells assessed as reduction in cell viability after 48 to 96 hrs by MTT assay; format: cell-based, Mesocricetus auratus, BHK-21; details: bhk-21
Rule: CC50 below 50 µM gives yes, anything at or above gives no.

Brc1ccc(/N=N/N2CCCCC2)cc1 | no
CN(C)CCCN(/N=N/c1c(F)cccc1F)c1ccccc1 | no
Clc1cccc(/N=N/N2CCCCC2)c1 | no
CN(C)CCCN(/N=N/c1ccc([N+](=O)[O-])cc1)c1ccccc1 | yes
CN(C)CCCN(/N=N/c1cc(F)ccc1F)c1cccc(C(F)(F)F)c1 | no

INPUT: is_below(CC50, 50 µM) for FC(F)(F)c1cccc(/N=N/N2CCCC2)c1 ?
OUTPUT: no

INPUT: is_below(CC50, 50 µM) for C[C@@]1(O)[C@H](O)[C@@H](CO)O[C@H]1n1cnc2c(=O)[nH]c(N)nc21 ?
OUTPUT: no

INPUT: is_below(CC50, 50 µM) for O=[N+]([O-])c1cccc(/N=N/Nc2ccccc2)c1 ?
OUTPUT: yes

INPUT: is_below(CC50, 50 µM) for c1ccc(/N=N/N2CCN(c3ccccc3)CC2)cc1 ?
OUTPUT: no

INPUT: is_below(CC50, 50 µM) for CN(C)CCCNc1ccc(/N=N/c2ccc([N+](=O)[O-])cc2)cc1 ?
OUTPUT: no

INPUT: is_below(CC50, 50 µM) for Fc1ccc(F)c(/N=N/c2ccc(NC[C@@H]3CCCN4CCCC[C@H]34)c3c2CCCC3)c1 ?
OUTPUT: yes
